- target desc: HLA-B*40:01
- experiment notes: IEDB peptide-MHC binding, purified MHC/direct/fluorescence; filed as Kd, often an IC50 or EC50 that approximates it; bounds were set here for any values at or beyond the usual limits of such assays
- assay conditions: source organism: West Nile virus
pKd: −log10 of the molar value.
In this section we review reported pKd values for a set of sequences.

>>> df
   ordered_residues  value_reported
0         TSDYINTSL          ≤ 4.70

Continue with the sequence presented below.
Measured pKd, MLRKKQITV : ≤ 4.70

----------
- target desc: HLA-A*02:06
- experiment notes: IEDB peptide-MHC binding, purified MHC/competitive/radioactivity; filed as Kd, often an IC50 or EC50 that approximates it; bounds were set here for any values at or beyond the usual limits of such assays
- assay conditions: source organism: Mammarenavirus guanaritoense
pKd: −log10 of the molar value.
endpoint name: pKd

Measured pKd, FMNDLQVSR : ≤ 4.47

----------
- target desc: HLA-A*11:01
- experiment notes: IEDB peptide-MHC binding, purified MHC/direct/fluorescence; filed as Kd, often an IC50 or EC50 that approximates it; bounds were set here for any values at or beyond the usual limits of such assays
- assay conditions: source organism: Corynebacterium glutamicum
endpoint name: pKd
Please note pKd is a logarithmic value: minus log10 of concentration in mol/L. Answer with that number alone.

Measured pKd, KLGDQFGRK : 7.15

----------
- target desc: HLA-B*45:06
- experiment notes: IEDB peptide-MHC binding, purified MHC/competitive/fluorescence; filed as Kd, often an IC50 or EC50 that approximates it; bounds were set here for any values at or beyond the usual limits of such assays
- assay conditions: source organism: Mycobacterium tuberculosis C
pKd: −log10 of the molar value.
endpoint name: pKd

Recorded pKd for RLYQYSFAK on HLA-B*45:06 was ≤ 5.30

----------
- target desc: HLA-A*02:01
- experiment notes: IEDB peptide-MHC binding, purified MHC/competitive/fluorescence; filed as Kd, often an IC50 or EC50 that approximates it; bounds were set here for any values at or beyond the usual limits of such assays
- assay conditions: source organism: Giardia lamblia ATCC 50803
endpoint name: Kd

Measured Kd, EMKLRQKQL : ≥ 20 µM

----------
- target desc: HLA-A*69:01
- experiment notes: IEDB peptide-MHC binding, purified MHC/direct/fluorescence; filed as Kd, often an IC50 or EC50 that approximates it; bounds were set here for any values at or beyond the usual limits of such assays
- assay conditions: source organism: Homo sapiens
endpoint name: pKd
Please note pKd is a logarithmic value: minus log10 of concentration in mol/L. Answer with that number alone.

Measured pKd, LVMAPRTVL : 5.44

----------
- target desc: HLA-A*01:01
- experiment notes: IEDB peptide-MHC binding, purified MHC/direct/fluorescence; filed as Kd, often an IC50 or EC50 that approximates it; bounds were set here for any values at or beyond the usual limits of such assays
- assay conditions: source organism: Mycobacterium tuberculosis
In this section we review reported Kd values for a set of sequences.

In [3]: df
Out[3]:
   ordered_residues  value_reported
0         RVEESRARL         ≥ 20 µM

Continue with the sequence presented below.
Measured Kd, QQDTNSAGL : ≥ 20 µM

----------
- target desc: HLA-B*18:01
- experiment notes: IEDB peptide-MHC binding, purified MHC/competitive/fluorescence; bounds were set here for any values at or beyond the usual limits of such assays
- assay conditions: source organism: Homo sapiens
endpoint name: IC50 (nM)
Give your result in nM as a bare value.

Measured IC50, MVRVLTVIKEY : 2770

Taken from the Immune Epitope Database (IEDB).
